Data origin, for the record: PubChem BioAssay (NCI)

System: SK-MEL-2 melanoma
assay-name: NCI-60 one-dose screen, 48 h (100 = growth as untreated, 0 = no growth, -100 = all killed)
study-conditions: 10 µM unless noted
Compounds without any hit were thinned out: in the full panel of roughly 83,000, 20% have a hit.
Consider the cut-off 40%. If the recorded growth is strictly smaller, the label is condition met; if not, the label is condition not met.

>>> df
                                   compound     assigned_class
0  CC(C)(C)C(=O)C1CC(C#N)=C2C=Cc3c(ccc4ccccc34)N21 (centres undefined)  condition not met
1  OC1CCC(Cn2c(C(F)(F)F)cc3c(Cl)ncnc32)CC1 (centres undefined)      condition met
2  Cc1ccc(C(=O)Nc2cc(-c3ccncc3)cc(C(F)(F)F)c2)cc1C#Cc1cnc2cccnn12      condition met
3  NC(=Nc1ccc(OCCCCCCCCn2cnnn2)cc1)c1ccccc1      condition met
4  CC(C)(C)OC(=O)N1CCC2(CC1)Oc1ccccc1[C@H]1CC(c3ccc(Br)cc3)=NN12  condition not met
5  O=C(CSc1nnc(-c2ccc(-c3nc4ccccc4[nH]3)cc2)o1)Nc1ccc(Br)cc1  condition not met
6  COc1ccc2oc(=O)c(-c3csc(N/N=C(\C)c4cc(OC)c(OC)c(OC)c4)n3)cc2c1  condition not met
7  COc1ccc2c(c1)c(-c1cc(N)n3nc(-c4c[nH]c5ccccc45)cc3n1)cn2C      condition met
